The values you see were collected from ChEMBL document CHEMBL1201862.

Target: Cytochrome P450 2C19 (Homo sapiens, UniProt P33261)
Sequence (P33261 whole entry): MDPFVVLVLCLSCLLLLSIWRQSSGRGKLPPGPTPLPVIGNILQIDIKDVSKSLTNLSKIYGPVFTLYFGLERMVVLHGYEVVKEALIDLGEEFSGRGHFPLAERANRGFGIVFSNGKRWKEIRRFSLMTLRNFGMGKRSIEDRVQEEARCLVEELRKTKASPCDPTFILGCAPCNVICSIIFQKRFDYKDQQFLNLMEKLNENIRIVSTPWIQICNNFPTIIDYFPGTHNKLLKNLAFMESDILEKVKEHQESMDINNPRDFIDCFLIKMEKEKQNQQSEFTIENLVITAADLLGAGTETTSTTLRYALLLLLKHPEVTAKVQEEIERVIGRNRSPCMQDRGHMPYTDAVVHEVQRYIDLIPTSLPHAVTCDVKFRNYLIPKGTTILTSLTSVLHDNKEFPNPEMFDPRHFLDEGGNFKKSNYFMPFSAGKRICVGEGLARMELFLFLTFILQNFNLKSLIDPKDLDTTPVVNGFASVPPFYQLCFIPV
Assay: Cytochrome panel assay with activity outcomes. Panel member name: p450-cyp2c19 Compounds with AC50 equal or less than 10 uM are considered active
Format: functional
Conditions: read-out: AC50
assay readout: AC50

Recorded AC50, per entry:
>>> value_reported("N#Cc1cc(-c2ccc(Cl)cc2)cnc1Sc1ccc(F)cc1")
"1 µM (inconclusive)"
>>> value_reported("OC(COc1ccc(OCC(O)CN2CCCCCC2)cc1)CN1CCCCCC1 (stereo not given)")
"1.78 µM (inconclusive)"
>>> value_reported("CCCC[C@H](CC)CNC(=N)NC(=N)NCCCCCCNC(=N)NC(=N)NC[C@@H](CC)CCCC")
"3.98 µM (inconclusive)"

// returns reported AC50 for input CN1C2CCC1CC(OC(=O)c1ccc(Cl)cc1)C2 (stereo not given) 5.62 µM (inconclusive)

Same again, this time with "CN(Cc1ccco1)c1cc(-c2cccc(NS(C)(=O)=O)c2)ncn1" 31.6 µM (inconclusive)

Would you kindly repeat that for "N#Cc1ccccc1-c1ccc2ncnc(NC3CC3)c2c1" ? 7.94 µM (inconclusive)

Next record, please: CCC(C)(C)n1nnnc1C(C(C)C)N(CCCO)Cc1cc2cc(C)ccc2nc1O (stereo not given) 25.1 µM (inconclusive)
